B1: DnaJ homolog subfamily C member 2, residues 451 to 503; numbered along this chain, Q99543 (parent)
chain: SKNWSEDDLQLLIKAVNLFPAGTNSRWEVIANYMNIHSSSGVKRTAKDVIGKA

# Variants of: B1
# procedure_text: abundance fitness (aPCA) (normalised: wild type 0, dead -1); higher = more abundant; growth selection in yeast, the domain comes from the species named
# run_conditions: Homo sapiens
# maps each entry to its abundance fitness
The reply should be a number, written without any unit.

Record excerpt, results attached:
{"ordered_residues": "SKNWSEDDLQLLIKAVNLFPAGTNSRWEVAANYMNIHSSSGVKRTAKDVIGKA [I30A]", "reported_measurement": -0.651}
{"ordered_residues": "SKNWSEDDLQLLIWAVNLFPAGTNSRWEVIANYMNIHSSSGVKRTAKDVIGKA [K14W]", "reported_measurement": -0.602}
{"ordered_residues": "SKNWSEDDLQLLIKAVNLFPAGMNSRWEVIANYMNIHSSSGVKRTAKDVIGKA [T23M]", "reported_measurement": -0.221}

Tell me the measured abundance fitness of SKNWSEDDLQLLIKAVNLFPAGTNSRWEVIGNYMNIHSSSGVKRTAKDVIGKA [A31G] , please.
-0.607

Lookup SKNWSEDDLALLIKAVNLFPAGTNSRWEVIANYMNIHSSSGVKRTAKDVIGKA [Q10A]
-0.189

Lookup SKNWSEDDLQLLIKAVNLFPAGTNSRWEVIANYMNIHSSSGVKRTATDVIGKA [K47T]
0.08

Lookup SKNWSEDDLQLLIKAVNLFPAGTCSRWEVIANYMNIHSSSGVKRTAKDVIGKA [N24C]
-0.166

Lookup SKNWSQDDLQLLIKAVNLFPAGTNSRWEVIANYMNIHSSSGVKRTAKDVIGKA [E6Q]
-0.055
